Source: patent US10124004B2

experimental.system: CDK4/cyclin D3 (Homo sapiens, UniProt P11802)
Construct: purchased Carna Biosciences, Inc. QS S Assist CDK4/Cyclin D3_FP Kit
Sequence (P11802 whole entry): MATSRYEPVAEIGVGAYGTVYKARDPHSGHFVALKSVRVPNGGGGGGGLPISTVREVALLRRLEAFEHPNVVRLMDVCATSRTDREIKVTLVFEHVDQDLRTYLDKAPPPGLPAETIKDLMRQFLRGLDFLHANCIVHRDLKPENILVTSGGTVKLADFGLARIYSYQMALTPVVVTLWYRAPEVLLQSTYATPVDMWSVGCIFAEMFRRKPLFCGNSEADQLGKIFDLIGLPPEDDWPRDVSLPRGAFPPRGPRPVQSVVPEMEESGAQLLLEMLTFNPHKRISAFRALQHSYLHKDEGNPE
Sequence (P30281 whole entry partner): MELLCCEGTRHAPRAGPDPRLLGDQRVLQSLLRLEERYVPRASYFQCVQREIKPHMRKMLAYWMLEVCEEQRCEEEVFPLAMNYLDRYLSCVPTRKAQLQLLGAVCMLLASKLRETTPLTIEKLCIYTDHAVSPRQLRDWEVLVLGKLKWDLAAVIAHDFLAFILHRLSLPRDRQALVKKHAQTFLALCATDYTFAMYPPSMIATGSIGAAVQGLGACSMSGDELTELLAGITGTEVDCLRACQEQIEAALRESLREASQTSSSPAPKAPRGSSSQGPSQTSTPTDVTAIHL
assay.explanation: Human CDK4/cyclin D3 inhibitory activity (QS S Assist CDK4/Cyclin D3_FP Kit, IMAP fluorescence polarization)
Format: biochemical
cond: 50% inhibitory concentration against CDK4/cyclin D3, given as class symbol
quantity.measured: IC50

Notebook: CCCNc1nc(C2CCOC2)cc2cnc(Nc3ccc(N4CCNCC4)nn3)nc12 (stereo not drawn) [Compound 946] , IC50 read as < 0.01 µM

Notebook: CCNc1nc([C@@H](C)O)cc2cnc(Nc3ccc(CN4CCCC(O)C4)cn3)nc12 (stereo partly drawn) [Compound 1080] , IC50 read as < 0.01 µM

Notebook: CCCNc1nc([C@@H](C)O)cc2cnc(Nc3ccc(CN4CCN(CCO)[C@@H](C)C4)cn3)nc12 [Compound 1208] , IC50 read as < 0.01 µM

Notebook: CC(C)Nc1nc([C@@H](C)O)cc2cnc(Nc3ccc(N4CC5CCCN5CC4=O)cn3)nc12 (stereo partly drawn) [Compound 825] , IC50 read as < 0.01 µM

Notebook: CC(C)Nc1nc([C@@H](C)O)cc2cnc(Nc3ccc(N4CCNC(C(F)(F)F)C4)nn3)nc12 (stereo partly drawn) [Compound 896] , IC50 read as < 0.01 µM

---

experimental.system: CDK4/cyclin D3 (Homo sapiens)
Construct: purchased Carna Biosciences, Inc. QS S Assist CDK4/Cyclin D3_FP Kit
assay.explanation: Human CDK4/cyclin D3 inhibitory activity (QS S Assist CDK4/Cyclin D3_FP Kit, IMAP fluorescence polarization)
Format: biochemical
cond: Human CDK4/cyclin D3 inhibitory activity; read-out: CDK4 Activity symbol
pIC50: −log10 of the molar value.
Readings of pIC50 for the listed compounds

A selection of reference data follows.
compound="CC(C)Nc1nc([C@@H](C)O)cc2cnc(Nc3ccc(N4CCCC(O)C4)nn3)nc12 (stereo partly shown)" experimental_system="CDK4/cyclin D3 (Homo sapiens)" recorded_value="> 8.00"
compound=COCC(C)(C)Nc1nc([C@@H](C)O)cc2cnc(Nc3ccc(N4CCC(O)CC4)nn3)nc12 experimental_system="CDK4/cyclin D3 (Homo sapiens)" recorded_value="7.00 to 8.00"
compound=CC(C)Nc1nc(C(F)F)cc2cnc(Nc3ccc(N4CCN(C)CC4=O)cn3)nc12 experimental_system="CDK4/cyclin D3 (Homo sapiens)" recorded_value="> 8.00"

Record CC(C)Nc1nc([C@@H](C)O)cc2cnc(Nc3ccc(O[C@H]4CNCC[C@@H]4F)nn3)nc12 / CDK4/cyclin D3 (Homo sapiens), pIC50 recorded as > 8.00

---

Readings of pIC50 for the listed compounds
experimental.system: CDK4/cyclin D3 (Homo sapiens, UniProt P11802)
Construct: purchased Carna Biosciences, Inc. QS S Assist CDK4/Cyclin D3_FP Kit
assay.explanation: Human CDK4/cyclin D3 inhibitory activity (QS S Assist CDK4/Cyclin D3_FP Kit, IMAP fluorescence polarization)
Type: biochemical
cond: 50% inhibitory concentration against CDK4/cyclin D3, given as class symbol
pIC50: −log10 of the molar value.

A selection of reference data follows.
compound=CO[C@H](C)c1cc2cnc(Nc3ccc(N4CCN(CC#N)CC4)nn3)nc2c(NC(C)C)n1 experimental_system="CDK4/cyclin D3 (Homo sapiens, UniProt P11802)" recorded_value="7.00 to 8.00"
compound="CC(C)Nc1nc([C@@H](C)O)cc2cnc(Nc3ccc(N4CCN(C(C)C(=O)O)CC4=O)cn3)nc12 (stereo partly shown)" experimental_system="CDK4/cyclin D3 (Homo sapiens, UniProt P11802)" recorded_value="> 8.00"
compound=C[C@@H](O)c1cc2cnc(Nc3ccc(C4CCN(CC(=O)O)CC4)cn3)nc2c(NC(C)(C)C)n1 experimental_system="CDK4/cyclin D3 (Homo sapiens, UniProt P11802)" recorded_value="> 8.00"

Now for the compound whose pIC50 we want.
Notebook: C[C@@H](O)c1cc2cnc(Nc3ccc(O[C@H]4CC[C@@H](N(C)C)CC4)cn3)nc2c(N[C@H]2CCCOC2)n1 , pIC50 read as > 8.00

---

experimental.system: CDK2/cyclin A2 (Homo sapiens)
Construct: purchased Carna Biosciences, Inc. QS S Assist CDK2/Cyclin A2_FP Kit
assay.explanation: Human CDK2/cyclin A2 inhibitory activity (QS S Assist CDK2/Cyclin A2_FP Kit, IMAP fluorescence polarization)
Type: biochemical
cond: Human CDK2/cyclin A2 inhibitory activity; read-out: CDK2 Activity symbol
pIC50: −log10 of the molar value.
Readings of pIC50 for the listed compounds

A selection of reference data follows.
compound="CC(C)Nc1nc(C(F)F)cc2cnc(Nc3ccc(N4CCN(C)CC4)cn3)nc12 [Compound 42]" recorded_value="7.00 to 8.00"
compound="CC(C)Nc1nc(C(F)F)cc2cnc(Nc3ccccn3)nc12 [Compound 82]" recorded_value="≤ 7.00"
compound="CC(C)Nc1nc([C@@H](C)O)cc2cnc(Nc3ccc(N4CCC(C)(N)CC4)nn3)nc12 [Compound 561]" recorded_value="≤ 7.00"
compound="CCNc1nc(C(C)O)cc2cnc(Nc3ccc(N4CCNCC4)cn3)nc12 (centres unmarked) [Compound 23]" recorded_value="≤ 7.00"
compound="C[C@@H](O)c1cc2cnc(Nc3ccc(N4CCNCC4)nn3)nc2c(NC2CCCC2C(=O)O)n1 (some centres unmarked) [Compound 309]" recorded_value="≤ 7.00"
compound="CN(C)CCOc1ccc(Nc2ncc3cc(C(F)F)nc(NC4CCCOC4)c3n2)nc1 (centres unmarked) [Compound 366]" recorded_value="≤ 7.00"
compound="CNC1CC2(C1)CN(c1ccc(Nc3ncc4cc([C@@H](C)O)nc(NC(C)C)c4n3)nn1)C2 [Compound 606]" recorded_value="≤ 7.00"
compound="COCC(C)(C)Nc1nc([C@@H](C)O)cc2cnc(Nc3ccc(CN4CCc5nc(C)[nH]c5C4)cn3)nc12 [Compound 296]" recorded_value="≤ 7.00"

Notebook: CC(C)Nc1nc(C(F)F)cc2cnc(Nc3ccc(NC(N)=O)cn3)nc12 [Compound 85] , pIC50 read as 7.00 to 8.00

Notebook: CC(C)Nc1nc(C(F)F)cc2cnc(Nc3ccc(S(=O)(=O)CCCO)cn3)nc12 [Compound 112] , pIC50 read as 7.00 to 8.00

Notebook: CO[C@H](C)c1cc2cnc(Nc3ccc(N4CCNCC4=O)cn3)nc2c(NC(C)C)n1 [Compound 207] , pIC50 read as ≤ 7.00

---

experimental.system: CDK2/cyclin A2 (Homo sapiens, UniProt P24941)
Construct: purchased Carna Biosciences, Inc. QS S Assist CDK2/Cyclin A2_FP Kit
assay.explanation: Human CDK2/cyclin A2 inhibitory activity (QS S Assist CDK2/Cyclin A2_FP Kit, IMAP fluorescence polarization)
Assay type: biochemical
cond: Human CDK2/cyclin A2 inhibitory activity; read-out: CDK2 Activity symbol
Readings of IC50 for the listed compounds

A selection of reference data follows.
compound="CO[C@H](C)c1cc2cnc(Nc3ccc(CN4CCc5nc(C)[nH]c5C4)cn3)nc2c(NC(C)C)n1 [Compound 277]" experimental_system="CDK2/cyclin A2 (Homo sapiens, UniProt P24941)" recorded_value="≥ 100 nM"
compound="CO[C@H](C)c1cc2cnc(Nc3ccc(CN4CCN(CCO)CC4)cn3)nc2c(NC(C)C)n1 [Compound 508]" experimental_system="CDK2/cyclin A2 (Homo sapiens, UniProt P24941)" recorded_value="≥ 100 nM"

Notebook: CC(C)Nc1nc(C(F)F)cc2cnc(Nc3ccc(CN4CCNCC4=O)cn3)nc12 [Compound 205] , IC50 read as 10 to 100 nM

Notebook: CC(C)Nc1nc(C(F)F)cc2cnc(Nc3ccc(CCCO)cn3)nc12 [Compound 164] , IC50 read as 10 to 100 nM

Notebook: CC(C)Nc1nc(C(F)F)cc2cnc(Nc3ccc(N4CCC(C(=O)O)CC4)cn3)nc12 [Compound 90] , IC50 read as 10 to 100 nM

Notebook: CC(C)Nc1nc([C@@H](C)O)cc2cnc(Nc3ccc(N4CCN(C(C)(C)C)CC4)nn3)nc12 [Compound 604] , IC50 read as ≥ 100 nM

Notebook: COC(C)c1cc2cnc(Nc3ccc(N4CCNCC4)cn3)nc2c(NC(C)C)n1 (centres unmarked) [Compound 37] , IC50 read as ≥ 100 nM

Notebook: CC(C)Nc1nc(C(F)F)cc2cnc(Nc3ccc(C4CCS(=O)(=O)CC4)cn3)nc12 [Compound 159] , IC50 read as ≥ 100 nM

---

Readings of pIC50 for the listed compounds
experimental.system: CDK4/cyclin D3 (Homo sapiens, UniProt P11802)
Construct: purchased Carna Biosciences, Inc. QS S Assist CDK4/Cyclin D3_FP Kit
assay.explanation: Human CDK4/cyclin D3 inhibitory activity (QS S Assist CDK4/Cyclin D3_FP Kit, IMAP fluorescence polarization)
Assay type: biochemical
cond: 50% inhibitory concentration against CDK4/cyclin D3, given as class symbol
Protocol: Human CDK4/Cyclin D3 Inhibitory Activity Each compound was analyzed for CDK4/cyclin D3 inhibitory activity with an assay kit (QS S Assist CDK4/Cyclin D3_FP Kit, available from Carna Biosciences, Inc.). […] Specifically, the kinase activity is determined through quantification of a variation in fluorescent polarization caused by binding of a kinase-phosphorylated fluorescent substance to an IMAP-binding reagent. […]
pIC50: −log10 of the molar value.

A selection of reference data follows.
compound=CNC(=O)CN1CCN(c2ccc(Nc3ncc4cc([C@@H](C)O)nc(NC(C)C)c4n3)nn2)CC1 quantity_measured=pIC50 recorded_value="> 8.00"
compound="CC(C)Nc1nc(C(C)O)cc2cnc(Nc3ccc(N4CCC(O)C(C)C4)nn3)nc12 (single isomer, unassigned) [Compound 704]" quantity_measured=pIC50 recorded_value="> 8.00"
compound=C[C@@H](O)c1cc2cnc(Nc3ccc(N4CCNCC4)nn3)nc2c(NC(C)(C)C)n1 quantity_measured=pIC50 recorded_value="> 8.00"
compound=CCNc1nc([C@@H](C)O)cc2cnc(Nc3ccc(CN4CCN(CCO)CC4)c(C)n3)nc12 quantity_measured=pIC50 recorded_value="> 8.00"
compound="CC(C)Nc1nc(C2CCOC2)cc2cnc(Nc3ccc4c(n3)CCN(C(=O)CO)C4)nc12 (stereo not drawn)" quantity_measured=pIC50 recorded_value="> 8.00"
compound=COC[C@H](C)Nc1nc([C@@H](C)O)cc2cnc(Nc3ccc(OCCN(C)C)cn3)nc12 quantity_measured=pIC50 recorded_value="7.00 to 8.00"
compound=CC(C)Nc1nc(C2(C)COC2)cc2cnc(Nc3ccc4c(n3)CCNC4)nc12 quantity_measured=pIC50 recorded_value="> 8.00"
compound="C[C@@H](O)c1cc2cnc(Nc3ccc(CN4CCN(CCO)CC4)cn3)nc2c(NC2CC(F)C2)n1 (stereo partly drawn)" quantity_measured=pIC50 recorded_value="> 8.00"

Notebook: CC(C)Nc1nc(C(C)O)cc2cnc(Nc3ccc(N4CCC(O)C5(CC5)C4)nn3)nc12 (single isomer, unassigned) [Compound 725] , pIC50 read as > 8.00

Notebook: CO[C@H](C)c1cc2cnc(Nc3ccc(N4CCN(C(C)(C)C(=O)O)CC4)nn3)nc2c(NC(C)C)n1 , pIC50 read as 7.00 to 8.00

Notebook: CO[C@H](C)c1cc2cnc(Nc3ccc(CN4CCN(C(=O)CO)CC4)cn3)nc2c(NC(C)C)n1 , pIC50 read as > 8.00

Notebook: CC(C)Nc1nc(C2(C)COC2)cc2cnc(Nc3ccc(N4CCNCC4)cn3)nc12 , pIC50 read as > 8.00

Notebook: C[C@H]1CC[C@H](Nc2nc(C(F)F)cc3cnc(Nc4ccc(CN5CCC(C(=O)O)CC5)cn4)nc23)CC1 , pIC50 read as > 8.00
